test system: 422866-222-R5-J1-PDC spheroids with HUVEC/MSC, viability; test: Anticancer human tumor 422866-222-R5-J1-PDC patient-derived pancreatic adenocarcinoma cell line growth inhibition [GQUAD]; details: curve of first compound; second compound 3.16 µM
RESULT_TYPE: pIC50
Quick note: pIC50 values are minus log10 of concentrations in mol/L.

Input: GET /values?readout=pIC50&item= Cc1[nH]c2ccccc2c1CCNCc1ccc(/C=C/C(=O)NO)cc1 + Cc1cnc(CNC(=O)c2c(=O)c3ccc(N4CCCN(C)CC4)nc3n3c2sc2ccccc23)cn1
Output: 6.57

Input: Please report the recorded pIC50 for CC[C@@]1(O)C(=O)OCc2c1cc1n(c2=O)Cc2cc3c(CN(C)C)c(O)ccc3nc2-1 + CN(C)c1ccc(Nc2c3ccc(NC(=O)CCN4CCCC4)cc3nc3cc(NC(=O)CCN4CCCC4)ccc23)cc1 .
Output: 7.07

Input: Give the measured pIC50 of CC1COCCN1c1cc(-c2ccnn2C)c2ccnc(-c3ccn[nH]3)c2n1 (stereo unspecified) + Cc1[nH]c2ccc(F)cc2c1-c1nc2c3cccnc3c3ncccc3c2[nH]1 .
Output: 7.50

* * *

tested on: 422866-222-R5-J1-PDC spheroids with HUVEC/MSC, viability; experiment: Anticancer human tumor 422866-222-R5-J1-PDC cell line growth inhibition [GQUAD]; conditions: second compound 0.316 µM; first compound 1 µM; stronger effect = lower value;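 also: spheroids exposed to compounds for seven days before reading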;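 as to viability, T/C: percent viability relative to DMSO vehicle control taken as 100%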
RESULT_TYPE: viability, T/C (%)
Please state the figure in %; there is no need to write the unit.

Input: Request: viability, T/C, test system 422866-222-R5-J1-PDC spheroids with HUVEC/MSC, viability, entry COc1cc(C2c3cc4c(cc3C(OC3OC5COC(C)OC5C(O)C3O)C3COC(=O)C23)OCO4)cc(OC)c1O (stereo unspecified) + CN(C)c1ccc(Nc2c3ccc(NC(=O)CCN4CCCC4)cc3nc3cc(NC(=O)CCN4CCCC4)ccc23)cc1
Output: 59.2

Input: Item COc1cccc2c1C(=O)c1c(O)c3c(c(O)c1C2=O)CC(O)(C(=O)CO)CC3OC1CC(N)C(O)C(C)O1 (stereo unspecified) + Cc1[nH]c2ccc(F)cc2c1-c1nc2c3cccnc3c3ncccc3c2[nH]1 with 422866-222-R5-J1-PDC spheroids with HUVEC/MSC, viability - viability, T/C?
Output: 55.5

Input: 422866-222-R5-J1-PDC spheroids with HUVEC/MSC, viability / viability, T/C / COc1ccc([C@@H](O)c2cc(-c3ncnc4cc(N5CCOCC5)ccc34)c(F)cc2Cl)nn1 + Cc1cnc(CNC(=O)c2c(=O)c3ccc(N4CCCN(C)CC4)nc3n3c2sc2ccccc23)cn1 : value?
Output: 60.2

Input: Lab note: need viability, T/C for COc1ncnc(C2CC2)c1-c1ncc2cnn(Cc3ccc(-c4nc(C(F)(F)F)cn4C(C)C)cc3)c2n1 + Cc1[nH]c2ccc(F)cc2c1-c1nc2c3cccnc3c3ncccc3c2[nH]1 on 422866-222-R5-J1-PDC spheroids with HUVEC/MSC, viability, anyone have it?
Output: 90.1

Input: Quick check: viability, T/C on 422866-222-R5-J1-PDC spheroids with HUVEC/MSC, viability, item Nc1ccn(C2OC(CO)C(O)C2(F)F)c(=O)n1 (stereo unspecified) + CN(C)c1ccc(Nc2c3ccc(NC(=O)CCN4CCCC4)cc3nc3cc(NC(=O)CCN4CCCC4)ccc23)cc1 ?
Output: 57.1

Input: Tell me reported viability, T/C for CCCS(=O)(=O)Nc1ccc(F)c(C(=O)c2c[nH]c3ncc(-c4ccc(Cl)cc4)cc23)c1F + Cc1[nH]c2ccc(F)cc2c1-c1nc2c3cccnc3c3ncccc3c2[nH]1 , tested with 422866-222-R5-J1-PDC spheroids with HUVEC/MSC, viability.
Output: 43.8

Input: Which measured viability, T/C belongs to O=c1[nH]cc(F)c(=O)[nH]1 + Cc1cnc(CNC(=O)c2c(=O)c3ccc(N4CCCN(C)CC4)nc3n3c2sc2ccccc23)cn1 , tested on 422866-222-R5-J1-PDC spheroids with HUVEC/MSC, viability?
Output: 83.3

Input: Kindly state the measured viability, T/C obtained for C#Cc1c(F)ccc2cc(O)cc(-c3ncc4c(N5CC6CCC(C5)N6)nc(OCC56CCCN5CC(F)C6)nc4c3F)c12 (stereo unspecified) + Cc1[nH]c2ccc(F)cc2c1-c1nc2c3cccnc3c3ncccc3c2[nH]1 with 422866-222-R5-J1-PDC spheroids with HUVEC/MSC, viability.
Output: 64.4

Input: Identify the measured viability, T/C of CCCS(=O)(=O)Nc1ccc(F)c(C(=O)c2c[nH]c3ncc(-c4ccc(Cl)cc4)cc23)c1F + CN(C)c1ccc(Nc2c3ccc(NC(=O)CCN4CCCC4)cc3nc3cc(NC(=O)CCN4CCCC4)ccc23)cc1 for 422866-222-R5-J1-PDC spheroids with HUVEC/MSC, viability.
Output: 143

Input: Item: COc1cccc2c1C(=O)c1c(O)c3c(c(O)c1C2=O)CC(O)(C(=O)CO)CC3OC1CC(N)C(O)C(C)O1 (stereo unspecified) + CN(C)c1ccc(Nc2c3ccc(NC(=O)CCN4CCCC4)cc3nc3cc(NC(=O)CCN4CCCC4)ccc23)cc1 Test system: 422866-222-R5-J1-PDC spheroids with HUVEC/MSC, viability Read-out: viability, T/C Value: ?
Output: 48.3

Input: What value of viability, T/C on 422866-222-R5-J1-PDC spheroids with HUVEC/MSC, viability does O=c1[nH]cc(F)c(=O)[nH]1 + CN(C)c1ccc(Nc2c3ccc(NC(=O)CCN4CCCC4)cc3nc3cc(NC(=O)CCN4CCCC4)ccc23)cc1 have?
Output: 88.9

Input: Report viability, T/C for CC1COCCN1c1cc(C2(O)CC3CCC(C2)O3)c2cnn(-c3ccn[nH]3)c2n1 (stereo unspecified) + Cc1[nH]c2ccc(F)cc2c1-c1nc2c3cccnc3c3ncccc3c2[nH]1 tested on 422866-222-R5-J1-PDC spheroids with HUVEC/MSC, viability.
Output: 79.1

Input: Form: Entry = CC(C)n1c(=O)n(C)c2cnc3cc(F)c(-c4ccc(OCCCN5CCCCC5)nc4)cc3c21 + Cc1[nH]c2ccc(F)cc2c1-c1nc2c3cccnc3c3ncccc3c2[nH]1 | System = 422866-222-R5-J1-PDC spheroids with HUVEC/MSC, viability | viability, T/C = ____
Output: 92.1

Input: Item CC(=O)O[C@H]1C(=O)[C@@]2(C)[C@H]([C@H](OC(=O)c3ccccc3)[C@]3(O)C[C@H](OC(=O)[C@H](O)[C@@H](NC(=O)c4ccccc4)c4ccccc4)C(C)=C1C3(C)C)[C@]1(OC(C)=O)CO[C@@H]1C[C@@H]2O + Cc1[nH]c2ccc(F)cc2c1-c1nc2c3cccnc3c3ncccc3c2[nH]1 with 422866-222-R5-J1-PDC spheroids with HUVEC/MSC, viability - viability, T/C?
Output: 55.3

Input: Request - read-out viability, T/C | tested on 422866-222-R5-J1-PDC spheroids with HUVEC/MSC, viability | molecule COc1ccc([C@@H](O)c2cc(-c3ncnc4cc(N5CCOCC5)ccc34)c(F)cc2Cl)nn1 + Cc1[nH]c2ccc(F)cc2c1-c1nc2c3cccnc3c3ncccc3c2[nH]1
Output: 60.6

Input: Report viability, T/C for Cc1cccc(N(C)C(=O)C2C(O)CCN2c2nc(C)cc(C(F)(F)F)c2C#N)c1 (stereo unspecified) + Cc1cnc(CNC(=O)c2c(=O)c3ccc(N4CCCN(C)CC4)nc3n3c2sc2ccccc23)cn1 tested on 422866-222-R5-J1-PDC spheroids with HUVEC/MSC, viability.
Output: 83.7

Input: Reported viability, T/C for 422866-222-R5-J1-PDC spheroids with HUVEC/MSC, viability, given O=C(NO)c1cnc(N2CCN(S(=O)(=O)c3ccc4ccccc4c3)CC2)nc1 + Cc1cnc(CNC(=O)c2c(=O)c3ccc(N4CCCN(C)CC4)nc3n3c2sc2ccccc23)cn1 ?
Output: 52.7

Input: Please provide the recorded viability, T/C for CC1COCCN1c1cc(C2(S(C)(=N)=O)CC2)nc(-c2ccnc3[nH]ccc23)n1 (stereo unspecified) + Cc1cnc(CNC(=O)c2c(=O)c3ccc(N4CCCN(C)CC4)nc3n3c2sc2ccccc23)cn1 , tested on 422866-222-R5-J1-PDC spheroids with HUVEC/MSC, viability.
Output: 96.2

Input: // map CC(C)(O)C1CCC(Nc2ccc3ncc(-c4cccc(C(F)(F)F)c4)n3n2)CC1 (stereo unspecified) + Cc1[nH]c2ccc(F)cc2c1-c1nc2c3cccnc3c3ncccc3c2[nH]1 to recorded viability, T/C (system: 422866-222-R5-J1-PDC spheroids with HUVEC/MSC, viability)
Output: 51.1

Input: Hi! What's the reported viability, T/C for CC1COCCN1c1cc(-c2ccnn2C)c2ccnc(-c3ccn[nH]3)c2n1 (stereo unspecified) + Cc1[nH]c2ccc(F)cc2c1-c1nc2c3cccnc3c3ncccc3c2[nH]1 on 422866-222-R5-J1-PDC spheroids with HUVEC/MSC, viability?
Output: 36.8

Input: Give viability, T/C (422866-222-R5-J1-PDC spheroids with HUVEC/MSC, viability) of the following molecule: C#Cc1c(F)ccc2cc(O)cc(-c3ncc4c(N5CC6CCC(C5)N6)nc(OCC56CCCN5CC(F)C6)nc4c3F)c12 (stereo unspecified) + CN(C)c1ccc(Nc2c3ccc(NC(=O)CCN4CCCC4)cc3nc3cc(NC(=O)CCN4CCCC4)ccc23)cc1
Output: 53.5
